B1: TPR 5TU (parent)
chain: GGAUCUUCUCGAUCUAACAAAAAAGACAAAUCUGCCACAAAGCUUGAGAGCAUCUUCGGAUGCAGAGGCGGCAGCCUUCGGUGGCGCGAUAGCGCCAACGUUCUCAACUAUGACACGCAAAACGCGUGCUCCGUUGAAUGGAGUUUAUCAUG

- Variants of: B1
- protocol-description: polymerase ribozyme fitness, log enrichment relative to wild type (log ratio); higher = more active; in vitro selection for triplet polymerase activity
Variants at the floor of the assay were thinned out.
observation-type: polymerase ribozyme fitness (log ratio)
Please reply with the value in numeric form only.

Fill blank: measured polymerase ribozyme fitness (log ratio) of the variant C118G A119U G141U is ____.
-0.349

Fill blank: measured polymerase ribozyme fitness (log ratio) of the variant A21G G84U C118U is ____.
-1.39

Fill blank: measured polymerase ribozyme fitness (log ratio) of the variant C38A A47G U55A U56C A60G is ____.
-2.08

Fill blank: measured polymerase ribozyme fitness (log ratio) of the variant A17U G25C is ____.
-4.13

Fill blank: measured polymerase ribozyme fitness (log ratio) of the variant G62U G124C is ____.
-1.42

Fill blank: measured polymerase ribozyme fitness (log ratio) of the variant A17G C72U A147C is ____.
-0.924

Fill blank: measured polymerase ribozyme fitness (log ratio) of the variant C38U G94U is ____.
-0.0168

Fill blank: measured polymerase ribozyme fitness (log ratio) of the variant C38U U55G G83U U135C is ____.
-1.98

Fill blank: measured polymerase ribozyme fitness (log ratio) of the variant C5U C85U is ____.
-0.24

Fill blank: measured polymerase ribozyme fitness (log ratio) of the variant A47C C93U is ____.
-1.69

Fill blank: measured polymerase ribozyme fitness (log ratio) of the variant A12U C93A is ____.
-1.26

Fill blank: measured polymerase ribozyme fitness (log ratio) of the variant A138C is ____.
-3.67

Fill blank: measured polymerase ribozyme fitness (log ratio) of the variant A16G C35U is ____.
-1.36

Fill blank: measured polymerase ribozyme fitness (log ratio) of the variant A19U G58A C105G is ____.
-2.43

Fill blank: measured polymerase ribozyme fitness (log ratio) of the variant A12U C35U A91G is ____.
-3.67

Fill blank: measured polymerase ribozyme fitness (log ratio) of the variant A41U G83A A150U is ____.
-0.63

Fill blank: measured polymerase ribozyme fitness (log ratio) of the variant G67U U146C is ____.
-2.47

Fill blank: measured polymerase ribozyme fitness (log ratio) of the variant A3G A39U G59C G83U is ____.
-3.56

Fill blank: measured polymerase ribozyme fitness (log ratio) of the variant A26C C93G U139G G140U is ____.
-4.11

Fill blank: measured polymerase ribozyme fitness (log ratio) of the variant A37U C95G is ____.
-3.51

Fill blank: measured polymerase ribozyme fitness (log ratio) of the variant C27U C76A is ____.
-2.31

Fill blank: measured polymerase ribozyme fitness (log ratio) of the variant G58A C75U C118G is ____.
-0.168

Fill blank: measured polymerase ribozyme fitness (log ratio) of the variant G124A A150G is ____.
-0.501

Fill blank: measured polymerase ribozyme fitness (log ratio) of the variant A17G C18A C69G U101G C105U A120U A142U is ____.
-1.71

Fill blank: measured polymerase ribozyme fitness (log ratio) of the variant C27U C36A C108G U139G U145C is ____.
-3.87

Fill blank: measured polymerase ribozyme fitness (log ratio) of the variant G58C is ____.
0.0074

Fill blank: measured polymerase ribozyme fitness (log ratio) of the variant G59C G126A is ____.
0.0741

Fill blank: measured polymerase ribozyme fitness (log ratio) of the variant A16C A40C G83A A97G is ____.
-0.914

Fill blank: measured polymerase ribozyme fitness (log ratio) of the variant C85U G94C is ____.
-0.28

Fill blank: measured polymerase ribozyme fitness (log ratio) of the variant G81A A115U A142U is ____.
-2.42

Fill blank: measured polymerase ribozyme fitness (log ratio) of the variant G11C C75U is ____.
-1.85

Fill blank: measured polymerase ribozyme fitness (log ratio) of the variant G59C C63U C87U A107U is ____.
-3.81

Fill blank: measured polymerase ribozyme fitness (log ratio) of the variant U45A A142G is ____.
-2.94

Fill blank: measured polymerase ribozyme fitness (log ratio) of the variant C85U C125U is ____.
-0.156

Fill blank: measured polymerase ribozyme fitness (log ratio) of the variant C63U U82G G126A G140A is ____.
-3.92

Fill blank: measured polymerase ribozyme fitness (log ratio) of the variant C57G G58U A137G G143A is ____.
-2.87

Fill blank: measured polymerase ribozyme fitness (log ratio) of the variant U33G C116U is ____.
-2.7

Fill blank: measured polymerase ribozyme fitness (log ratio) of the variant U53C C57G C125U G143A is ____.
-3.67

Fill blank: measured polymerase ribozyme fitness (log ratio) of the variant A52C C85G C87U G133A G143C is ____.
-4.07

Fill blank: measured polymerase ribozyme fitness (log ratio) of the variant A60C C93U is ____.
-2.64

Fill blank: measured polymerase ribozyme fitness (log ratio) of the variant A40G C87U is ____.
-1.53

Fill blank: measured polymerase ribozyme fitness (log ratio) of the variant U6A U7C G83A C125A is ____.
-3.64

Fill blank: measured polymerase ribozyme fitness (log ratio) of the variant U55G C108G G133U A142C is ____.
-4.19

Fill blank: measured polymerase ribozyme fitness (log ratio) of the variant A3C U7G C14U A52G is ____.
-3.28

Fill blank: measured polymerase ribozyme fitness (log ratio) of the variant G80A A89G G117U is ____.
-1.48

Fill blank: measured polymerase ribozyme fitness (log ratio) of the variant G11C G46C G59C G92U is ____.
-3.55

Fill blank: measured polymerase ribozyme fitness (log ratio) of the variant A49C U109G G152U is ____.
-4.18

Fill blank: measured polymerase ribozyme fitness (log ratio) of the variant C38A C96G is ____.
-0.458
